Overview of recorded binding, % of positive control peptide for various binders
- study-target: T1, MHC class I molecule A*0101 (biotin (bound to streptavidin-coated plate))
- T1 construct: iTopia monomer stripped of placeholder peptide and b2M, then reconstituted with test peptide and fresh b2M; also called A1; HLA-A1
- method-notes: iTopia peptide binding assay
test-readout: binding, % of positive control peptide

INSERT INTO assay_data (binder, test_result) VALUES
  ('MRNRVLLEL [5T4 9-mer peptide 165 (MRNRVLLEL)]', '0 % of positive control'),
  ('ADMVTWLKE [5T4 9-mer peptide 152 (ADMVTWLKE)]', '0 % of positive control'),
  ('DNALKVLHN [5T4 9-mer peptide 134 (DNALKVLHN)]', '1 % of positive control'),
  ('LTCAYPEKM [5T4 9-mer peptide 161 (LTCAYPEKM)]', '16 % of positive control'),
  ('SFRNLTHLE [5T4 9-mer peptide 127 (SFRNLTHLE)]', '1 % of positive control'),
  ('KGIKKWMHN [5T4 9-mer peptide 190 (KGIKKWMHN)]', '3 % of positive control'),
  ('PWVCDCHMA [5T4 9-mer peptide 148 (PWVCDCHMA)]', '0 % of positive control'),
  ('SADLDCDPI [5T4 9-mer peptide 170 (SADLDCDPI)]', '0 % of positive control');
